# MEASURED TARGET: Recombinant Human Anaplastic Lymphoma Kinase (Homo sapiens, UniProt Q9UM73)
# Construct: purchased Invitrogen, Carlsbad, Calif
# Sequence (Q9UM73 19-1620): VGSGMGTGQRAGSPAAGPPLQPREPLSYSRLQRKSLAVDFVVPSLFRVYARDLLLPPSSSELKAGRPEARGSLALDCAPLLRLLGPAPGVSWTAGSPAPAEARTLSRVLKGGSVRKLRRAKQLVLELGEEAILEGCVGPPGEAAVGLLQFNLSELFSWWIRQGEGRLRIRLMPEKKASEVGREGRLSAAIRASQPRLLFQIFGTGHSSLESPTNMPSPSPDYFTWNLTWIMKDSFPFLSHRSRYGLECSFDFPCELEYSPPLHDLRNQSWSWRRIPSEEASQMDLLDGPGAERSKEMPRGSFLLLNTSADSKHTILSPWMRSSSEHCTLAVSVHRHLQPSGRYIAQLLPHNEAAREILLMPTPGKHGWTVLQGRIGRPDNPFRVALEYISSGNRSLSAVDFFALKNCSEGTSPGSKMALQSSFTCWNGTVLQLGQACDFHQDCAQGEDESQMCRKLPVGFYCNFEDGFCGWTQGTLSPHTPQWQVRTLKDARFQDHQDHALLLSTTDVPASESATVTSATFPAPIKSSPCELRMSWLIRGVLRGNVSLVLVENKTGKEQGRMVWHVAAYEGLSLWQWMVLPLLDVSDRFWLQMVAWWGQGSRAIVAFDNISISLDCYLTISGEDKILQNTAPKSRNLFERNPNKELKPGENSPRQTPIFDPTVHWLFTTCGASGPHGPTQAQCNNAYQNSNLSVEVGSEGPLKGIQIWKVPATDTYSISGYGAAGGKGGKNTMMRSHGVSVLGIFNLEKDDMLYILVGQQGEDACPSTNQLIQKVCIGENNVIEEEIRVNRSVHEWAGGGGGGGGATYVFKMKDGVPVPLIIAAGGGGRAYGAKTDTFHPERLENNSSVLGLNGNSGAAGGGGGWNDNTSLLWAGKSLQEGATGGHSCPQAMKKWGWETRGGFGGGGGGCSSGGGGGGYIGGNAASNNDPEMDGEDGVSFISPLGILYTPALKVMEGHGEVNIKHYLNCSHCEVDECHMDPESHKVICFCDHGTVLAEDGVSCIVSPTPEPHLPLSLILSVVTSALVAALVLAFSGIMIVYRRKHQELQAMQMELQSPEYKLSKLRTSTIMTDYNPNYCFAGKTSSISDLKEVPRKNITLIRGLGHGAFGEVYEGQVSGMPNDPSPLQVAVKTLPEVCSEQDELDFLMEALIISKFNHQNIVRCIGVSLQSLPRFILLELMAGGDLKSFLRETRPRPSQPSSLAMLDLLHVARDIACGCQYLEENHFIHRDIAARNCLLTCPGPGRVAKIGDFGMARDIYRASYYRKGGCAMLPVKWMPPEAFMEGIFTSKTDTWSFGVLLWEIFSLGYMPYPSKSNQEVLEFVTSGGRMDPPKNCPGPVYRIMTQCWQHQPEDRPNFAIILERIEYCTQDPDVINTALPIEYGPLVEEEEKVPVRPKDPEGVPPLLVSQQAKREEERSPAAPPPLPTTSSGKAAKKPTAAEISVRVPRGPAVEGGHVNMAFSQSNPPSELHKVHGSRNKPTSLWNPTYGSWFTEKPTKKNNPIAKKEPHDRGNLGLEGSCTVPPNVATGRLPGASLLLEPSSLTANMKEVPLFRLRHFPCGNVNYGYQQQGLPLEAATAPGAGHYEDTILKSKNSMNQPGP
# PROTOCOL TEXT: ALK HTRF kinase assay
# Assay type: biochemical
# STATED CONDITIONS: compound at a concentration of 500 nM or 1 mM (not specified); cells shown as percentage
Counter-ions that a name gives are not always drawn.
MEASUREMENT KIND: ALK % of inhibition at a concentration of 500 nM or 1 mM (%)
API: value field is a number in %; no unit string.

compound="O=C(Nc1ccc2cc1CCc1cccc(c1)Nc1ncc(Cl)c(n1)N2)Nc1ccccc1C(F)(F)F [Example B111, trifluoroacetate]" readout_units=% recorded_value=14
compound="O=C(Nc1cc2cc(c1)Nc1nc(ncc1Cl)Nc1cccc(c1)CC2)Nc1ccccc1F [Example B213, trifluoroacetate]" readout_units=% recorded_value=11
compound="O=C(Nc1ccc2cc1CCc1cccc(c1)Nc1ncc(Cl)c(n1)N2)NC1CC1 [Example B240, trifluoroacetate]" readout_units=% recorded_value=15

With those in mind, consider the next compound.
Problem: Return reported ALK % of inhibition at a concentration of 500 nM or 1 mM; argument: O=C(Nc1cccc(F)c1)Nc1cc2cc(c1)Nc1nc(ncc1Cl)Nc1cccc(c1)CC2 [Example B214, trifluoroacetate]
Solution: 39
